Data provenance: patent US20220403048A1

Biological target: T1, human ARG2 (Homo sapiens, UniProt P78540, E275H/R327K)
T1 construct: His10 (after a GGG linker) (C); made in house; host or cells: E. coli BL21 (DE3)
T1 sequence (P78540 23-354 E275H/R327K): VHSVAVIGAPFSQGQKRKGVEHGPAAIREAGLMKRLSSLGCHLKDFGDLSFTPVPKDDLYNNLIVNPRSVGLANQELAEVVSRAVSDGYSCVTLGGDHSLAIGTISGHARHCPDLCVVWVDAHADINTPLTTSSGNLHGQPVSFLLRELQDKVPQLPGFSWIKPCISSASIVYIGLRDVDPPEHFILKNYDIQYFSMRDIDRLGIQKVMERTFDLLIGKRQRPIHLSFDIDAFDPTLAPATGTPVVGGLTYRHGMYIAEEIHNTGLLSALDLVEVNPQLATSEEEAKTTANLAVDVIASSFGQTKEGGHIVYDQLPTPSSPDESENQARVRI
Experiment: Bio-Layer Interferometry (OctetRED) binding kinetics, human ARG2
Conditions: Fab as analyte; streptavidin capture; analyte 1.8 to 120 nM; affinity-matured antibodies
// reported kd for each item listed
Kindly answer with a numeric value in s⁻¹, unit omitted.

C0021065: anti-ARG2 antibody, VH SEQ ID NO: 72, VL SEQ ID NO: 77 (antibody, listed as Homo sapiens, V domains shown, C0021065) VH: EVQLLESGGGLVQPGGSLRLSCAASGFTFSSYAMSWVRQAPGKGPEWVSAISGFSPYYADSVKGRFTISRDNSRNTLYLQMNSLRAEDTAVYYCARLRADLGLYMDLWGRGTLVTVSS VL: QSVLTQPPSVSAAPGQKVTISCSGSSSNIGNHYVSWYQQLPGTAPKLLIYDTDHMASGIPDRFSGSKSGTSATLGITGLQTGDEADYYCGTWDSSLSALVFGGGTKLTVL :: 0.000665

// moving on: another record for kd
// query Which kd is listed for C0021097 Fab (antibody, V domains shown) VH: EVQLLESGGGLVQPGGSLRLSCAASGFTFSSYAMSWVRQAPGKGLEWVSAISYHPGSTYYADSVKGRFTISRDNSKNTLYLQMNSLRAEDTAVYYCARLRADLGLYMDLWGRGTLVTVSS VL: QSVLTQPPSVSAAPGQKVTISCSGSSSNIGNHYVSWYQQLPGTAPKLLIYNTFARPSGIPDRFSGSKSGTSATLGITGLQTGDEADYYCGTWDSSLSALVFGGGTKLTVL ?
// result 0.00146
